# PROCEDURE DETAILS: qHTS Screen of the MIPE 4.0 Collection Against Ewings Sarcoma (EW8) (AID 1259255); note: nearly all actives have a fitted effect of over 35% in size; note: potency is the fitted concentration of half-maximal effect
# TEST PARAMETERS: EW8 Ewing sarcoma viability, CellTiter-Glo, 48 h; series mostly up to 45.8 µM
Results filed as inconclusive are left out. Activity calls are given as the source filed them. Calls come from the whole dose curve; as a rule, active = well fitted inhibition curve with a large enough effect; inconclusive = small, poorly fitted or top-dose-only effect; inactive = no such curve, though single readings can be large or run the other way.
ATTRIBUTE MEASURED: Potency

Please review the entries below; each comes with its answer.
N#CC1(c2cccc(C(=O)Nc3cc(Oc4ccc5nc(NC(=O)C6CC6)sc5n4)ccc3F)c2Cl)CC1 has a reported Potency of 20.9 µM (active)

Input CCCCC(F)(F)[C@@]1(O)CC[C@H]2[C@H](CC(=O)[C@@H]2CCCCCCC(=O)O)O1 . Output Potency: 3.32 µM (active)

Measured Potency, C[C@]12CCC3=C4CCC(=O)C=C4CC[C@@H]3[C@H]1CC[C@@]2(O)CC#N : inactive

Potency in this record for C[C@@H](O[C@H]1OCCN(Cc2n[nH]c(=O)[nH]2)[C@@H]1c1ccc(F)cc1)c1cc(C(F)(F)F)cc(C(F)(F)F)c1 : 26.4 µM (active)

Kindly note the recorded Potency for Cc1cnc(-c2cc(N3CCN(C(=O)CCS(C)(=O)=O)CC3)ncc2Cl)c(C)c1 , which is inactive

***
Entry COc1ccc2c(c1)CC[C@H]1[C@@H]2CC[C@]2(C)[C@@H](NCCCCCCN3C(=O)C=CC3=O)CC[C@H]12 ; Potency = inactive

Summary for this compound, OC(c1cc(C(F)(F)F)nc2c(C(F)(F)F)cccc12)C1CCCCN1 (stereo not given) : Potency is 20.9 µM (active)

Kindly note the recorded Potency for COc1cc(N2CCN(C)CC2)ccc1Nc1nc(N)c(C(=O)c2c(Cl)cccc2Cl)s1 , which is 16.6 µM (active)

For record Cc1ccc2c(c1)C(=O)[C@]1(O)CCN(c3ccccc3)C1=N2 the listed Potency is 18.7 µM (active)

Per the record, CC(C)C[C@@H](C(=O)N[C@H](C(=O)OC1CCCC1)c1ccccc1)[C@H](O)C(=O)NO has Potency of 18.7 µM (active)

In plain terms, CC[C@H]1OC(=O)[C@H](C)[C@@H](O[C@H]2C[C@@](C)(OC)[C@@H](O)[C@H](C)O2)[C@H](C)[C@@H](O[C@@H]2O[C@H](C)C[C@H](N(C)C)[C@H]2O)[C@](C)(O)C[C@H](C)C(=NOCOCCOC)[C@H](C)[C@@H](O)[C@]1(C)O has a documented Potency of inactive

The compound listed as C#CCN(C)CC1=Cc2ccccc2Oc2ccccc21 has a reported Potency of inactive

Entry CN(CC=CC#CC(C)(C)C)Cc1cccc2ccccc12 ; Potency = inactive

The measured Potency associated with CC(O)=C(C#N)C(=O)Nc1ccc(C(F)(F)F)cc1 reads 20.9 µM (active)

Value of measured Potency for the entry Cc1cc(NC(=O)Nc2ccc(N(C)C)cc2)c2cc(F)cc(F)c2n1 : 26.4 µM (active)
